Measured IC50 values are reported for all entries that follow.
Experimental system: NRAS G12C (Homo sapiens, UniProt P01111+P62937, G12C)
Construct: His6
Sequence (P01111 whole entry G12C, one chain of several): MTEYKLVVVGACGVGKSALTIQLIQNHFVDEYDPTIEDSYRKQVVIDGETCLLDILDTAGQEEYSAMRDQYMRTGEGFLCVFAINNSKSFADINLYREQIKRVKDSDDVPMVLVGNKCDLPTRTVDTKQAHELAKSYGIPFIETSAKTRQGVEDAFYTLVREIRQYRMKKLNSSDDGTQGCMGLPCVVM
Assay summary: Ras-Raf disruption/FRET/MOA assay, NRAS G12C
Format: biochemical
Experimental conditions: NRAS G12C; read-out: NRAS G12C FRET data IC50
Property label: IC50

1. CCn1c(-c2cccnc2[C@H](C)OC)c2c3cc(ccc31)-c1csc(n1)C[C@H](NC(=O)[C@H](C(C)C)N(C)C(=O)N1C3CCC1CN(C(=O)[C@H]1CN1)C3)C(=O)N1CCC[C@H](N1)C(=O)OCC(C)(C)C2 [Compound 303] :: 100 to 1000 nM
2. CCn1c(-c2cccnc2[C@H](C)OC)c2c3cc(ccc31)-c1cc(O)cc(c1)C[C@H](NC(=O)[C@H](C(C)C)N1CC[C@@]3(CCCN(C(=O)[C@@H]4CN4)C3)C1=O)C(=O)N1CCC[C@H](N1)C(=O)OCC(C)(C)C2 [Compound 191] :: 10 to 100 nM
3. CCn1c(-c2cccnc2[C@H](C)OC)c2c3cc(ccc31)-c1csc(n1)C[C@H](NC(=O)[C@H](C(C)C)N(C)C(=O)N1CCC[C@H](N(C)C(=O)[C@H]3CN3)C1)C(=O)N1CCC[C@H](N1)C(=O)OCC(C)(C)C2 (atropisomer, axis not shown) [Compound 290] :: 100 to 1000 nM
4. CCn1c(-c2cccnc2[C@H](C)OC)c2c3cc(ccc31)-c1cc(cc(C(F)F)c1)C[C@H](NC(=O)[C@H](C1CCCC1)N1CC[C@]3(CCN(C(=O)[C@H]4CN4)C3)C1=O)C(=O)N1CCC[C@H](N1)C(=O)OCC(C)(C)C2 [Compound 233] :: 100 to 1000 nM
5. CCn1c(-c2cc(N3CCN(C)CC3)cnc2[C@H](C)OC)c2c3cc(ccc31)-c1csc(n1)C[C@H](NC(=O)[C@H](C1CCCC1)N1CC[C@]3(CCN(C(=O)[C@@H]4N[C@@H]4C4CC4)C3)C1=O)C(=O)N1CCC[C@H](N1)C(=O)OCC(C)(C)C2 [Compound 324] :: 100 to 1000 nM
6. CCn1c(-c2cnccc2COC)c2c3cc(ccc31)-c1cc(O)cc(c1)C[C@H](NC(=O)[C@H](C(C)C)N(C)C(=O)CN(C)C(=O)C1CN1C(C)=O)C(=O)N1CCC[C@H](N1)C(=O)OCC(C)(C)C2 (some centres unmarked) [Compound 14] :: 10 to 100 nM
7. CCn1c(-c2cccnc2[C@H](C)OC)c2c3cc(ccc31)-c1cc(O)cc(c1)C[C@H](NC(=O)[C@H](C(C)C)N1CCCC3(CN(C(=O)[C@@H]4CN4)C3)C1=O)C(=O)N1CCC[C@H](N1)C(=O)OCC(C)(C)C2 [Compound 306] :: < 10 nM
8. CCn1c(-c2cccnc2[C@H](C)OC)c2c3cc(ccc31)-c1cc(O)cc(c1)C[C@H](NC(=O)[C@H](C(C)C)N1CC[C@@]3(CCN(C[C@H]4CN4)C3)C1=O)C(=O)N1CCC[C@H](N1)C(=O)OCC(C)(C)C2 [Compound 193] :: 10 to 100 nM

----------
System: NCI-H358 (K-Ras G12C)
Assay summary: CellTiter-Glo cell viability assay, H358
Format: cell-based
Experimental conditions: Homo sapiens, NCI-H358, 120 h, read-out: H358 Cell Viability IC50, NCI-H358, K-Ras G12C, 5-day treatment
Experimental: Determination of Cell Viability in RAS Mutant Cancer Cell Lines Protocol: CellTiter-Glo® Cell Viability Assay Note—The following protocol describes a procedure for monitoring cell viability of K-Ras mutant cancer cell lines in response to a compound of the invention. […] Test compounds (132.5 nL) were directly dispensed into the assay plates containing cells. […] Luminescence was measured using the PerkinElmer Enspire. […]
Property label: IC50

1) CCn1c(-c2cccnc2[C@H](C)OC)c2c3cc(ccc31)-c1cc(O)cc(c1)C[C@H](NC(=O)[C@H](C(C)C)N(C)C(=O)CN(C)C(=O)[C@H]1CN1CCCC#N)C(=O)N1CCC[C@H](N1)C(=O)OCC(C)(C)C2 (stereo partly drawn) [Compound 273] :: < 10 nM
2) CCn1c(-c2cccnc2[C@H](C)OC)c2c3cc(ccc31)-c1cc(O)cc(c1)C[C@H](NC(=O)[C@H](C(C)C)N(C)C(=O)CN(C)C(=O)[C@H]1N[C@H]1C(F)(F)F)C(=O)N1CCC[C@H](N1)C(=O)OCC(C)(C)C2 [Compound 259] :: 10 to 100 nM
3) CCn1c(-c2cnccc2COC)c2c3cc(ccc31)-c1cc(O)cc(c1)C[C@H](NC(=O)[C@H](C(C)C)N(C)C(=O)CN(C)C(=O)[C@H]1N[C@@H]1c1ccccc1)C(=O)N1CCC[C@H](N1)C(=O)OCC(C)(C)C2 [Compound 12] :: 100 to 1000 nM
4) CCn1c(-c2cccnc2[C@H](C)OC)c2c3cc(ccc31)-c1cc(O)cc(c1)C[C@H](NC(=O)[C@H](C(C)C)N(C)C(=O)CN(C)C(=O)[C@H]1N[C@H]1C1CCC1)C(=O)N1CCC[C@H](N1)C(=O)OCC(C)(C)C2 [Compound 288] :: 10 to 100 nM
5) CCn1c(-c2cccnc2[C@H](C)OC)c2c3cc(ccc31)-c1cccc(c1)C[C@H](NC(=O)[C@H](C(C)C)N(C)C(=O)CN(C)C(=O)[C@H]1CN1)C(=O)N1CCC[C@H](N1)C(=O)OCC(C)(C)C2 [Compound 107] :: 100 to 1000 nM
6) CCn1c(-c2cccnc2[C@H](C)OC)c2c3cc(ccc31)-c1cc(O)cc(c1)C[C@H](NC(=O)[C@H](C(C)C)N(C)C(=O)CN(C)C(=O)[C@H]1N[C@@H]1C1CC1)C(=O)N1CCC[C@H](N1)C(=O)OCC(C)(C)C2 [Compound 136] :: < 10 nM
7) CCn1c(-c2cccnc2[C@H](C)OC)c2c3cc(ccc31)-c1cc(O)cc(c1)C[C@H](NC(=O)[C@H](C(C)C)N(C)C(=O)CN(C)C(=O)C1CN1CCOC)C(=O)N1CCC[C@H](N1)C(=O)OCC(C)(C)C2 (stereo partly drawn) [Compound 90] :: < 10 nM
8) CCn1c(-c2cccnc2[C@H](C)OC)c2c3cc(ccc31)-c1cc(O)cc(c1)C[C@H](NC(=O)[C@H](C(C)C)N(C)C(=O)CN(C)C(=O)[C@H]1CN1CCCOC)C(=O)N1CCC[C@H](N1)C(=O)OCC(C)(C)C2 (stereo partly drawn) [Compound 201] :: < 10 nM
9) CCn1c(-c2cccnc2[C@H](C)OC)c2c3cc(ccc31)-c1cc(O)cc(c1)C[C@H](NC(=O)[C@H](C1CCCC1)N(C)C(=O)CN(C)C(=O)[C@H]1CN1)C(=O)N1CCC[C@H](N1)C(=O)OCC(C)(C)C2 [Example 95] :: < 10 nM

----------
Test system: AsPC-1 (K-Ras G12D)
Assay summary: CellTiter-Glo cell viability assay, AsPC-1
Type: cell-based
Experimental conditions: Homo sapiens, ASPC1, 120 h, read-out: AsPC-1 Cell Viability IC50, AsPC-1, K-Ras G12D, 5-day treatment
Measured IC50 values are reported for all entries that follow.
Property label: IC50

1. CCn1c(-c2cccnc2[C@H](C)OC)c2c3cc(ccc31)-c1cc(O)cc(c1)C[C@H](NC(=O)[C@H](C(C)C)N(C)C(=O)CN(C)C(=O)[C@@H]1CN1)C(=O)N1CCC[C@H](N1)C(=O)OCC(C)(C)C2 :: 100 to 1000 nM
2. CCn1c(-c2cccnc2[C@H](C)OC)c2c3cc(ccc31)-c1cc(O)cc(c1)C[C@H](NC(=O)[C@H](C(C)C)N(C)C(=O)CN(C)C(=O)[C@@H]1N[C@@H]1C1CCC1)C(=O)N1CCC[C@H](N1)C(=O)OCC(C)(C)C2 :: 100 to 1000 nM
3. CCn1c(-c2cnccc2COC)c2c3cc(ccc31)-c1cc(O)cc(c1)C[C@H](NC(=O)[C@H](C(C)C)N(C)C(=O)CN(C)C(=O)[C@@H]1CN1)C(=O)N1CCC[C@H](N1)C(=O)OCC(C)(C)C2 :: 1000 to 10000 nM
4. CCn1c(-c2cccnc2[C@H](C)OC)c2c3cc(ccc31)-c1cccc(c1)C[C@H](NC(=O)[C@H](C(C)C)N(C)C(=O)CN(C)C(=O)[C@H]1CN1)C(=O)N1CCC[C@H](N1)C(=O)OCC(C)(C)C2 :: 1000 to 10000 nM

----------
Measured pIC50 values are reported for all entries that follow.
Experimental system: KRAS Q61H (Homo sapiens, UniProt P01116+P62937, Q61H)
Sequence (P01116 1-169 isoform P01116-2 Q61H limits assumed): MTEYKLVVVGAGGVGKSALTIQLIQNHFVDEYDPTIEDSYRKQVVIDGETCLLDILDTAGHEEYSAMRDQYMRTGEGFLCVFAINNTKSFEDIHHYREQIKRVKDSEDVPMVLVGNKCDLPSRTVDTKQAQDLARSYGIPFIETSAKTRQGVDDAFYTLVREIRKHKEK
Sequence (P62937 whole entry): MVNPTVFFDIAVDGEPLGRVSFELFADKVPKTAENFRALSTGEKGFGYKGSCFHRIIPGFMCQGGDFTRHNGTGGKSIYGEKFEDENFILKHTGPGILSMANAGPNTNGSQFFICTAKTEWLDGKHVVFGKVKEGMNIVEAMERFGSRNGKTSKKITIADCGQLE
Assay summary: Ras-Raf disruption/FRET/MOA assay, KRAS Q61H
Type: biochemical
Experimental conditions: KRAS Q61H; read-out: KRAS Q61H FRET data IC50
pIC50: −log10 of the molar value.
Property label: pIC50

1. CCn1c(-c2cccnc2[C@H](C)OC)c2c3cc(ccc31)-c1cc(O)cc(c1)C[C@H](NC(=O)[C@H](C(C)C)N1CO[C@]3(CCN(C(=O)[C@H]4CN4)C3)C1=O)C(=O)N1CCC[C@H](N1)C(=O)OCC(C)(C)C2 :: > 8.00
2. CCn1c(-c2cccnc2[C@H](C)OC)c2c3cc(ccc31)-c1cc(O)cc(c1)C[C@H](NC(=O)[C@H](C(C)C)N1CO[C@@]3(CCN(C(=O)[C@H]4CN4)C3)C1=O)C(=O)N1CCC[C@H](N1)C(=O)OCC(C)(C)C2 :: 7.00 to 8.00
3. CCn1c(-c2cccnc2[C@H](C)OC)c2c3cc(ccc31)-c1cc(O)cc(c1)C[C@H](NC(=O)[C@H](C(C)C)N1CCCC3(CN(C(=O)[C@H]4CN4)C3)C1=O)C(=O)N1CCC[C@H](N1)C(=O)OCC(C)(C)C2 :: 7.00 to 8.00
4. CCn1c(-c2cccnc2[C@H](C)OC)c2c3cc(ccc31)-c1cc(cc(C(F)F)c1)C[C@H](NC(=O)[C@H](C1CCCC1)N1CC[C@]3(CCN(C(=O)[C@@H]4N[C@@H]4C4CC4)C3)C1=O)C(=O)N1CCC[C@H](N1)C(=O)OCC(C)(C)C2 :: 6.00 to 7.00
5. CCn1c(-c2cccnc2[C@H](C)OC)c2c3cc(ccc31)-c1cc(cc(C(F)F)c1)C[C@H](NC(=O)[C@H](C1CCCC1)N1CC[C@]3(CCN(C(=O)[C@H]4CN4)C3)C1=O)C(=O)N1CCC[C@H](N1)C(=O)OCC(C)(C)C2 :: 6.00 to 7.00
6. CCn1c(-c2cnccc2COC)c2c3cc(ccc31)-c1cc(O)cc(c1)C[C@H](NC(=O)[C@H](C(C)C)N(C)C(=O)CN(C)C(=O)[C@@H]1CN1S(C)(=O)=O)C(=O)N1CCC[C@H](N1)C(=O)OCC(C)(C)C2 (some centres unmarked) :: 7.00 to 8.00
7. CCn1c(-c2cccnc2[C@H](C)OC)c2c3cc(ccc31)-c1csc(n1)C[C@H](NC(=O)[C@H](C(C)C)N(C)C(=O)N1C3CCC1CN(C(=O)[C@@H]1CN1)C3)C(=O)N1CCC[C@H](N1)C(=O)OCC(C)(C)C2 :: 7.00 to 8.00
8. CCn1c(-c2cccnc2[C@H](C)OC)c2c3cc(ccc31)-c1csc(n1)C[C@H](NC(=O)[C@H](C(C)C)N(C)C(=O)N1CCC[C@H](N(C)C(=O)[C@H]3CN3)C1)C(=O)N1CCC[C@H](N1)C(=O)OCC(C)(C)C2 (atropisomer, axis not shown) :: 6.00 to 7.00
